# testedSystem: Muscarinic acetylcholine receptor M2 (Homo sapiens, UniProt P08172); also: assay procedure not described here
# Sequence (P08172 whole entry): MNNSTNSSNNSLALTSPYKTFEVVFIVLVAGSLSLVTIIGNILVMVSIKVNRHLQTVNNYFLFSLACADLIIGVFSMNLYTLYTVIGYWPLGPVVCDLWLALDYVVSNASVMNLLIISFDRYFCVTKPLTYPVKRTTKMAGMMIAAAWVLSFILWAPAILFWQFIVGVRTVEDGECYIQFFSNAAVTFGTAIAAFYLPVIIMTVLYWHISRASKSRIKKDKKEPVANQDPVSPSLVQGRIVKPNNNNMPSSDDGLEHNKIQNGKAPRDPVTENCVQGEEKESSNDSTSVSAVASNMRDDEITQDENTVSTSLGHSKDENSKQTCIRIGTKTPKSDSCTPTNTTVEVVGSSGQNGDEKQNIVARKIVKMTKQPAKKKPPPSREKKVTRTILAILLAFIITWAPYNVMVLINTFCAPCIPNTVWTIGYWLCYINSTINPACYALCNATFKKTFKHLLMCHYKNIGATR
# Format: functional, cell-based
testReadout: AC50

Answered examples (3):
# compound, AC50
measured = [
    ("CCOC(=O)C1=C[C@]2(CC)CCCN3CCc4c(n1c1ccccc41)[C@@H]32", "13 µM"),
    ("CNCc1ccc(-c2[nH]c3cc(F)cc4c3c2CCNC4=O)cc1", "> 10 µM"),
    ("CCCCCC(=O)O[C@]1(C(C)=O)CC[C@H]2[C@@H]3CCC4=CC(=O)CC[C@]4(C)[C@H]3CC[C@@]21C [HYDROXYPROGESTERONE CAPROATE]", "> 30 µM"),
]

Lab note: next compound to report on.
Q) Read the entry CCCC(CCC)C(N)=O [VALPROMIDE] and write its reported AC50.
A) > 10 µM

* * *

# testedSystem: Alpha-2A adrenergic receptor (Homo sapiens, UniProt P08913); also: assay procedure not described here
# Sequence (P08913 whole entry): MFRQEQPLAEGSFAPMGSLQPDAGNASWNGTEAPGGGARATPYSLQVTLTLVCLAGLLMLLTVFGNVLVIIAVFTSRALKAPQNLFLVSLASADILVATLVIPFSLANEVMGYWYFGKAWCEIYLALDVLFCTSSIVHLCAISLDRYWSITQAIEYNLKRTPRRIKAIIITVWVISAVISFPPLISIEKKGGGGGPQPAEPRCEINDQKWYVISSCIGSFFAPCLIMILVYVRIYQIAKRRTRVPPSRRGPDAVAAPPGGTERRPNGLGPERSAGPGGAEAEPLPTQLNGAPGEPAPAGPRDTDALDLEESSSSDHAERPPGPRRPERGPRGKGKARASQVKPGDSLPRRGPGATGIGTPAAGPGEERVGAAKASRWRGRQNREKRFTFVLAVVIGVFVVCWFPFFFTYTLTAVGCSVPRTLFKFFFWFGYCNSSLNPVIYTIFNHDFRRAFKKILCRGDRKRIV
# Assay type: functional, cell-based
AC50 reference

Worked examples, 2 compounds total:
# compound, testReadout, recordedResult
rows = [
    ("Cc1cc(C(C)(C)C)cc(C)c1CC1=NCCN1 [XYLOMETAZOLINE]", "AC50", "0.0616 µM"),
    ("CCC(C)C1(CC)C(=O)NC(=O)NC1=O (configuration not stated) [BUTABARBITAL]", "AC50", "> 30 µM"),
]

Q) Lab note: record AC50 of C=C1/C(=C\C=C2/CCC[C@]3(C)[C@@H]([C@H](C)/C=C/[C@@H](O)C4CC4)CC[C@@H]23)C[C@@H](O)C[C@@H]1O [CALCIPOTRIENE] tested on Alpha-2A adrenergic receptor (Homo sapiens, UniProt P08913). Also: assay procedure not described here.
A) > 30 µM

Q) Look up Alpha-2A adrenergic receptor (Homo sapiens, UniProt P08913) data: AC50 of CC(C)c1nc(N(C)S(C)(=O)=O)nc(-c2ccc(F)cc2)c1/C=C/[C@@H](O)C[C@@H](O)CC(=O)O [ROSUVASTATIN] , then report it.
A) > 30 µM

* * *

Quick note: these are AC50 numbers for system: Substance-P receptor (Homo sapiens); also: assay procedure not described here
Sequence (P25103 whole entry): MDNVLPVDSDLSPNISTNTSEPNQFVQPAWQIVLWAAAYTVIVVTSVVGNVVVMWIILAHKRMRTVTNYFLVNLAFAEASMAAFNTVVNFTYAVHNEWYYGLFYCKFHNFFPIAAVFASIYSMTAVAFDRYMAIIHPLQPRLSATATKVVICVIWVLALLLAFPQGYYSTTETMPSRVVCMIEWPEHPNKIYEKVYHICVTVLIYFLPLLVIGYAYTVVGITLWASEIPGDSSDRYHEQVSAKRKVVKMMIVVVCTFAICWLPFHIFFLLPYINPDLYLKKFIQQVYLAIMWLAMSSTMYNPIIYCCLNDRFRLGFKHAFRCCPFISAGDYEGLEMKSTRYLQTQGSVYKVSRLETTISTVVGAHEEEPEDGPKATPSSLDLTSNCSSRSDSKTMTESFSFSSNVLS

These recorded examples may help you get a feel for the data.
# molecule, recordedResult
rows = [
    ("CC(C)NCC(O)c1ccc(O)c(O)c1 (stereo not drawn)", "> 10 µM"),
    ("COc1cc2nc(N3CCN(C(=O)C4CCCO4)CC3)nc(N)c2cc1OC (stereo not drawn)", "> 10 µM"),
    ("C=CC[C@@H]1/C=C(\\C)C[C@H](C)C[C@H](OC)[C@H]2O[C@@](O)(C(=O)C(=O)N3CCCC[C@H]3C(=O)O[C@H](/C(C)=C/[C@@H]3CC[C@@H](O)[C@H](OC)C3)[C@H](C)[C@@H](O)CC1=O)[C@H](C)C[C@@H]2OC [TACROLIMUS ANHYDROUS]", "> 10 µM"),
    ("Cn1c(=O)cc(N2CCC[C@@H](N)C2)n(Cc2ccccc2C#N)c1=O", "> 10 µM"),
    ("COc1ccccc1OCCNCC(O)COc1cccc2[nH]c3ccccc3c12 (stereo not drawn)", "0.481 µM"),
]

Q) Supply AC50 measured with Substance-P receptor (Homo sapiens) for CCCC(CCC)C(=O)O .
A) > 10 µM

Q) Return reported AC50 for target or system Substance-P receptor (Homo sapiens), item O=C(O)c1cn(C2CC2)c2cc(N3CCNCC3)c(F)cc2c1=O . Also: assay procedure not described here.
A) > 10 µM

Q) Would you please give the reported AC50 of OC1(c2ccc(Cl)cc2)c2ccccc2C2=NCCN21 (stereo not drawn) with Substance-P receptor (Homo sapiens)?
A) > 10 µM

* * *

# reported AC50; entries follow
# testedSystem: 5-hydroxytryptamine receptor 2B (Homo sapiens, UniProt P41595); also: assay procedure not described here
# Sequence (P41595 whole entry): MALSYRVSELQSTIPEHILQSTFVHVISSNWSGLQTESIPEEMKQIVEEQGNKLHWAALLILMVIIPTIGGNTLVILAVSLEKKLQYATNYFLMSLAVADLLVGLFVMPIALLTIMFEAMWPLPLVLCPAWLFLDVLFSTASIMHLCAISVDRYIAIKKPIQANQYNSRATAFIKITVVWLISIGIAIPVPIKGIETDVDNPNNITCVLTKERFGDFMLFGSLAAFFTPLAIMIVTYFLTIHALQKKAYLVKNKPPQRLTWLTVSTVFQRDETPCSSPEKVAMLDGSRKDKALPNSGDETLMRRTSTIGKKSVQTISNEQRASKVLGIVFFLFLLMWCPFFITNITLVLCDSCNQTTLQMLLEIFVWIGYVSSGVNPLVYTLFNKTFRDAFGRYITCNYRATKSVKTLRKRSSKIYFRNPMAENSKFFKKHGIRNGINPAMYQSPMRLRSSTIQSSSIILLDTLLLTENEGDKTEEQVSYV
# Assay type: functional, cell-based

# compound, AC50
measured = [
    ("C/N=C(\\NC)NCc1ccccc1 [BETHANIDINE]", "> 30 µM"),
    ("CC1=C(C)C(=O)C(C(CCCCCC(=O)O)c2ccccc2)=C(C)C1=O (stereo not drawn) [SERATRODAST]", "> 30 µM"),
    ("CC1OC2(CS1)CN1CCC2CC1 (stereo not drawn) [CEVIMELINE]", "> 10 µM"),
]

Q) Read the entry C[C@H]1c2cccc(O)c2C(=O)C2=C(O)[C@]3(O)C(=O)C(C(N)=O)=C(O)[C@@H](N(C)C)[C@@H]3[C@@H](O)[C@@H]21 [DOXYCYCLINE] and write its reported AC50.
A) > 10 µM

Q) Query AC50 for COc1ccccc1Oc1c(NS(=O)(=O)c2ccc(C(C)(C)C)cc2)nc(-c2ncccn2)nc1OCCO [BOSENTAN]
A) > 10 µM

Q) Fill in reported AC50 for this entry: C=CCNc1nc(NCC=C)nc(N2CCN(C(c3ccc(F)cc3)c3ccc(F)cc3)CC2)n1 [ALMITRINE]
A) > 30 µM

Q) Tell us which AC50 value is on record for CN(C)CCCNc1c2ccccc2nc2cccc([N+](=O)[O-])c12 [NITRACRINE]
A) > 30 µM

Q) # return recorded AC50 for entry CC(=O)O[C@]1(C(C)=O)CC[C@H]2[C@@H]3C=C(C)C4=CC(=O)CC[C@@H]4[C@H]3CC[C@@]21C [NOMEGESTROL ACETATE]
A) > 30 µM

* * *

# testedSystem: Voltage-dependent L-type calcium channel subunit alpha-1C (Rattus norvegicus, UniProt P22002); also: assay procedure not described here
# Sequence (P22002 whole entry): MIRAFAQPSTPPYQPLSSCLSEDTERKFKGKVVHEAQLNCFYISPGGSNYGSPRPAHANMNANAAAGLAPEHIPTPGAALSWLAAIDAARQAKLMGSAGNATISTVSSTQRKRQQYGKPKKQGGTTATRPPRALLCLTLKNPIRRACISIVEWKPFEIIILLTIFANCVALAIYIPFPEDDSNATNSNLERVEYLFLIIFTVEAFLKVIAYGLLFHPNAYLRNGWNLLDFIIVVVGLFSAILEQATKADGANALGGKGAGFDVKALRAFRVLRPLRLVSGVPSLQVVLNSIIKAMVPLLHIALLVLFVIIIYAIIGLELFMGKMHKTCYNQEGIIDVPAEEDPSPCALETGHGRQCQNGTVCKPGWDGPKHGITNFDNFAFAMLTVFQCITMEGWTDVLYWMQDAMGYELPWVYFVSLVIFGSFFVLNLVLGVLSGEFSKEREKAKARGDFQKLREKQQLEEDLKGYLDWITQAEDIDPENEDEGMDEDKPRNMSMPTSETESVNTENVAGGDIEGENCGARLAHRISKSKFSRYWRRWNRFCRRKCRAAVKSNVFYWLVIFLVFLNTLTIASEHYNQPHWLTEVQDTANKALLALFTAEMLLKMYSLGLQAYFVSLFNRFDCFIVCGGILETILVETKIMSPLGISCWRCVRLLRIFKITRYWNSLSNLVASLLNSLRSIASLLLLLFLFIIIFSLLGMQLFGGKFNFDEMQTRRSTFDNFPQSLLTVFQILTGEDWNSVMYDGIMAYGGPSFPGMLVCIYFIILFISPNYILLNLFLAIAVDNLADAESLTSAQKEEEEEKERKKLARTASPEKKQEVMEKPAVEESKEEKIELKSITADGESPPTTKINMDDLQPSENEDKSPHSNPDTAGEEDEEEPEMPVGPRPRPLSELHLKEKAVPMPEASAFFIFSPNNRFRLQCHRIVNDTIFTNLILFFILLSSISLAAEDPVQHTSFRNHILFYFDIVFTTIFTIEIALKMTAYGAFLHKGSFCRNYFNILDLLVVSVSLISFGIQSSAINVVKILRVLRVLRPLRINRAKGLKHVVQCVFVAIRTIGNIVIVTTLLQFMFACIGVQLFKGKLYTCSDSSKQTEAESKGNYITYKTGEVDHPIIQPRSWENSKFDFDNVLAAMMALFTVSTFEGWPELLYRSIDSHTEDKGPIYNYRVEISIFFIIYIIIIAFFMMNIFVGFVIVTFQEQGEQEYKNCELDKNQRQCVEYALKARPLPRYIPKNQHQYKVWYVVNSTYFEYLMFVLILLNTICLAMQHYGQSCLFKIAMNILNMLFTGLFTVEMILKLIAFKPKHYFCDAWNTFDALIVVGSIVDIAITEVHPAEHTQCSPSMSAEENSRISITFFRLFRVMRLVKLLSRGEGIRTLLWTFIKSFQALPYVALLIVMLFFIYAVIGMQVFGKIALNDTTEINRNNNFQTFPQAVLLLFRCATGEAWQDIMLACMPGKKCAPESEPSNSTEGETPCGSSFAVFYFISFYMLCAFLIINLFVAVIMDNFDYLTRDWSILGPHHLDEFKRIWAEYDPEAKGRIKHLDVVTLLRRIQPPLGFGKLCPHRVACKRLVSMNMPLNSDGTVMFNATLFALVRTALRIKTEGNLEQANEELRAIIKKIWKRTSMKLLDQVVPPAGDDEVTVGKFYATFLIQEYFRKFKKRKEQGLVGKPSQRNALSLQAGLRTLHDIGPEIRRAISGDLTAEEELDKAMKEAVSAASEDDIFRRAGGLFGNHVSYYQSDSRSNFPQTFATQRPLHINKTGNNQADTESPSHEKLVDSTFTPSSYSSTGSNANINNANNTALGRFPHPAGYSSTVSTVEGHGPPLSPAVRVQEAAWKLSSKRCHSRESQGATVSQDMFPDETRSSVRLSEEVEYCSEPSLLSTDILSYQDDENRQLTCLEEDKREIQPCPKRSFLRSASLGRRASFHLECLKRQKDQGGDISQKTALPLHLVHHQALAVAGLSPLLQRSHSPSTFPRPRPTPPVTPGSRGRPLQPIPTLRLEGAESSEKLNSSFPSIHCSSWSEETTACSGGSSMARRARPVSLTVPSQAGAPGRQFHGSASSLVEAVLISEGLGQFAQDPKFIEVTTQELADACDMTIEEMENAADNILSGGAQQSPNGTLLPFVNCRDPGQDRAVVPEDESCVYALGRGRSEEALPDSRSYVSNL
# Format: functional
testReadout: AC50

These recorded examples may help you get a feel for the data.
# molecule, testReadout, recordedResult
data = [
    ("CCC(COC(=O)c1cc(OC)c(OC)c(OC)c1)(c1ccccc1)N(C)C (stereo not given)", "AC50", "21 µM"),
    ("CN1CCC(=C2c3ccccc3CCc3cccnc32)CC1", "AC50", "> 10 µM"),
    ("CC(C(=O)O)c1ccc(-c2ccccc2)c(F)c1 (stereo not given)", "AC50", "> 10 µM"),
    ("Cc1cc(C(C)(C)C)cc(C)c1CC1=NCCN1", "AC50", "> 30 µM"),
]

The record that follows has no AC50 shown yet.
Q) Identify the reported AC50 for the following entry. Cc1cc2cc3c(C)cc(=O)oc3c(C)c2o1
A) > 10 µM

* * *

# testedSystem: Alpha-1A adrenergic receptor (Homo sapiens, UniProt P35348); also: assay procedure not described here
# Sequence (P35348 whole entry): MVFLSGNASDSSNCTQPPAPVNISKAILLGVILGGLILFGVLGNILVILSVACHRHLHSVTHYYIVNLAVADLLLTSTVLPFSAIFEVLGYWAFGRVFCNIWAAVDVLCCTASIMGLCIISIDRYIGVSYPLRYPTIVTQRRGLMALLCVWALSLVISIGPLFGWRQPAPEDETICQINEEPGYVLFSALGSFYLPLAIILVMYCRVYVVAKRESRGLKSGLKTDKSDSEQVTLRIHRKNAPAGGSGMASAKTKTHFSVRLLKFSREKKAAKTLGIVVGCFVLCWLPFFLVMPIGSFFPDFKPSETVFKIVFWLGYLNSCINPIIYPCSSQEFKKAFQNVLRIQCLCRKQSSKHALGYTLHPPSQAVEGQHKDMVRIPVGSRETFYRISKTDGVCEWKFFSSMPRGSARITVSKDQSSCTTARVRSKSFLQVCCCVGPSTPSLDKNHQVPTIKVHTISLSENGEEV
# Type: functional, cell-based
Known AC50 of a selection of compounds

Known AC50 results, listed for orientation:
# compound, AC50
measured = [
    ("C[C@]12CC[C@@H]3c4ccc(O)cc4C[C@@H](CCCCCCCCC[S+]([O-])CCCC(F)(F)C(F)(F)F)[C@H]3[C@@H]1CC[C@@H]2O (stereo not given in full)", "> 30 µM"),
    ("NC1CCN(c2nc3c(cc2F)c(=O)c(C(=O)O)cn3-c2ccc(F)cc2F)C1 (stereo not given)", "> 30 µM"),
    ("CN(C)CCCNc1c2ccccc2nc2cccc([N+](=O)[O-])c12", "6.7 µM"),
    ("Nc1cc(-c2ccncc2)c[nH]c1=O", "> 30 µM"),
    ("C[C@H](CCC(=O)O)[C@H]1CC[C@H]2[C@@H]3[C@@H](O)C[C@@H]4C[C@H](O)CC[C@]4(C)[C@H]3CC[C@]12C", "> 30 µM"),
]

Q) Please give the documented AC50 of CC1(C)S[C@@H]2[C@H](NC(=O)[C@H](N)c3ccccc3)C(=O)N2[C@H]1C(=O)OCOC(=O)[C@@H]1N2C(=O)C[C@H]2S(=O)(=O)C1(C)C
A) > 30 µM

Q) Indicate its recorded AC50; the compound in question is CC12CC3CC(C)(C1)CC(N)(C3)C2 [MEMANTINE]
A) > 30 µM

Q) Using known records, supply AC50 for O=[N+]([O-])c1ccc(O)c2ncccc12
A) > 30 µM

Q) Provide AC50 value for the following compound: O=C1CCc2cc(OCCCCc3nnnn3C3CCCCC3)ccc2N1
A) > 30 µM

Q) Provide measured AC50 value, entry: C#C[C@]1(OC(C)=O)CC[C@H]2[C@@H]3CCC4=C/C(=N/O)CC[C@@H]4[C@H]3CC[C@@]21CC [NORGESTIMATE]
A) > 30 µM

Q) Specify reported AC50 for the compound shown: CCCCC(=O)O[C@]1(C(=O)CO)[C@@H](C)C[C@H]2[C@@H]3CCC4=CC(=O)C=C[C@]4(C)[C@@]3(F)[C@@H](O)C[C@@]21C [BETAMETHASONE VALERATE]
A) > 30 µM

Q) Answer with the recorded AC50 of COc1cc(N)c(Cl)cc1C(=O)NC1CCN(Cc2ccccc2)CC1 [CLEBOPRIDE] only.
A) 14 µM

Q) Retrieve AC50 measured for CCCN[C@H]1CCc2nc(N)sc2C1 [PRAMIPEXOLE] and print it.
A) 13 µM

Q) Return AC50 for the following compound: CN(CC1(C)CCCO1)S(=O)(=O)c1ccc(Cl)c(S(N)(=O)=O)c1 (stereo not given) [MEFRUSIDE]
A) > 30 µM

Q) Return reported AC50. Input compound: CNC1=Nc2ccc(Cl)cc2C(c2ccccc2)=[N+]([O-])C1 [CHLORDIAZEPOXIDE]
A) > 30 µM

Q) Read the entry Cc1ncc2n1-c1ccc(Cl)cc1C(c1ccccc1F)=NC2 and write its reported AC50.
A) > 30 µM

Q) Read off the recorded AC50 for CC1OC2(CS1)CN1CCC2CC1 (stereo not given)
A) > 30 µM

Q) Please give the documented AC50 of CCOC(=O)c1cncn1[C@H](C)c1ccccc1 [ETOMIDATE]
A) > 30 µM

Q) Specify AC50 for COc1ccc(-c2noc(CC(=O)O)c2-c2ccc(OC)cc2)cc1 and stop.
A) > 30 µM

Q) Specify AC50 for CCN(CC)CCN1C(=O)CN=C(c2ccccc2F)c2cc(Cl)ccc21 and stop.
A) > 30 µM

Q) For the compound C#C[C@]1(O)CC[C@H]2[C@@H]3CCC4=CC(=O)CC[C@@H]4[C@H]3C(=C)C[C@@]21CC , report AC50.
A) > 30 µM

Q) Given CC(C)(C)C(=O)OCC(=O)[C@H]1CC[C@H]2[C@@H]3CCC4=CC(=O)CC[C@]4(C)[C@H]3CC[C@]12C [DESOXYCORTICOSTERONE PIVALATE] , respond with its AC50.
A) > 30 µM

Q) Please look at this compound and report its AC50: CC(C)c1nc(N(C)S(C)(=O)=O)nc(-c2ccc(F)cc2)c1/C=C/[C@@H](O)C[C@@H](O)CC(=O)O
A) > 30 µM

Q) Annotate the compound CN(C(=O)c1c(O)c2ccccc2n(C)c1=O)c1ccccc1 with its measured AC50.
A) > 30 µM

Q) Provide AC50 value for the following compound: NC(=O)CN1CCCC1=O
A) > 30 µM

Q) Tell me its AC50 given COc1ccccc1Oc1c(NS(=O)(=O)c2ccc(C(C)(C)C)cc2)nc(-c2ncccn2)nc1OCCO as the entry.
A) > 30 µM

Q) Indicate its recorded AC50; the compound in question is Nc1ccc(S(=O)(=O)Nc2nccs2)cc1
A) > 30 µM

Q) Answer with the recorded AC50 of O=C(O)c1ccccc1Nc1cc(Cl)ccc1C(=O)O only.
A) > 30 µM

Q) Supply measured AC50 of CC(C)N(CCC(C(N)=O)(c1ccccc1)c1ccccn1)C(C)C (stereo not given) [DISOPYRAMIDE] in your reply.
A) > 30 µM

Q) Using the record for CCCC(CCC)C(N)=O [VALPROMIDE] , state its measured AC50.
A) > 30 µM

Q) Specify AC50 for Cc1noc(NS(=O)(=O)c2ccc(N)cc2)c1C and stop.
A) 22 µM
